From: PubChem BioAssay AID2060912

System: HUVEC/MSC spheroids viability
Test Method Notes: Human HUVEC/MSC cell line growth inhibition [KRAS2];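 further: percent of DMSO vehicle control luminescence so 100% = untreated viability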
Experimental Conditions: second compound 0.316 µM; first compound 0.03 µM; stronger effect = lower value
Text: Multicellular complex tumor spheroid response to RAS pathway inhibitors in combination with a targeted agents in patient-derived cell lines with oncogenic KRAS variants from multiple cancer types A high-throughput screen of multi-cell type tumor spheroids was designed to identify active combinations of targeted small molecules and KRAS pathway inhibitors. […] Compounds. […] If the clinical Cmax for an agent had not been determined, the highest concentration tested was 10 microM. […]
Test Readout: viability, T/C

**Query** Give the measured viability, T/C for CC(=O)OC12COC1CC(O)C1(C)C(=O)C(O)C3=C(C)C(OC(=O)C(O)C(NC(=O)OC(C)(C)C)c4ccccc4)CC(O)(C(OC(=O)c4ccccc4)C21)C3(C)C (stereo not given) + CC1OCC2(CCN(c3cnc(Sc4ccnc(N)c4Cl)c(N)n3)CC2)C1N
**Result** 63.3%

**Query** Supply reported viability, T/C belonging to this compound: CC(=O)Nc1cccc(-n2c(=O)n(C3CC3)c(=O)c3c(Nc4ccc(I)cc4F)n(C)c(=O)c(C)c32)c1 + COc1cc2nc(C)nc(NC(C)c3cc(N)cc(C(F)(F)F)c3)c2cc1OC1CCOC1
**Result** 14.6%

**Query** State its viability, T/C for this compound: CC1COCCN1c1cc(-c2ccnn2C)c2ccnc(-c3ccn[nH]3)c2n1 (stereo not given) + CNCc1ccccc1-c1csc(C(C)Nc2nc(C)nc3cc(OC)c(OC)cc23)c1
**Result** 95.1%

**Query** Determine its reported viability, T/C: CC1COCCN1c1cc(-c2ccnn2C)c2ccnc(-c3ccn[nH]3)c2n1 (stereo not given) + COc1cc2nc(C)nc(NC(C)c3cc(N)cc(C(F)(F)F)c3)c2cc1OC1CCOC1
**Result** 95%

**Query** Provide only the value of recorded viability, T/C for CC(=O)Nc1cccc(-n2c(=O)n(C3CC3)c(=O)c3c(Nc4ccc(I)cc4F)n(C)c(=O)c(C)c32)c1 + CNCc1ccccc1-c1csc(C(C)Nc2nc(C)nc3cc(OC)c(OC)cc23)c1
**Result** 13.4%

###

Test system: HUVEC/MSC spheroids viability
Test Method Notes: Human HUVEC/MSC cell line growth inhibition [KRAS2];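 further: percent of DMSO vehicle control luminescence so 100% = untreated viability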
Experimental Conditions: second compound 0.0316 µM; first compound 0.01 µM; stronger effect = lower value
Some molecules, each annotated with its measured viability, T/C.
Dear colleague, please return just the value in %, with no unit written.

Some molecules with known viability, T/C results, for comparison:
CCN1CCN(Cc2ccc(Nc3ncc(F)c(-c4cc(F)c5nc(C)n(C(C)C)c5c4)n3)nc2)CC1 + C=CC(=O)N1CCN(c2nc(=O)n(-c3c(C)ccnc3C(C)C)c3nc(-c4c(O)cccc4F)c(F)cc23)C(C)C1	95.8
CC(C)n1nc(-c2ccc3oc(N)nc3c2)c2c(N)ncnc21 + COc1cc2nc(C)nc(NC(C)c3cc(N)cc(C(F)(F)F)c3)c2cc1OC1CCOC1	53
CCN1CCN(Cc2ccc(Nc3ncc(F)c(-c4cc(F)c5nc(C)n(C(C)C)c5c4)n3)nc2)CC1 + CC1OCC2(CCN(c3cnc(Sc4ccnc(N)c4Cl)c(N)n3)CC2)C1N	105
CN(C)C/C=C/C(=O)Nc1cc2c(Nc3ccc(F)c(Cl)c3)ncnc2cc1O[C@H]1CCOC1 + C=CC(=O)N1CCN(c2nc(=O)n(-c3c(C)ccnc3C(C)C)c3nc(-c4c(O)cccc4F)c(F)cc23)C(C)C1	84.3

Query molecule follows.
**Query** Kindly indicate its recorded viability, T/C. Item: CN(C)C/C=C/C(=O)Nc1cc2c(Nc3ccc(F)c(Cl)c3)ncnc2cc1O[C@H]1CCOC1 + CNCc1ccccc1-c1csc(C(C)Nc2nc(C)nc3cc(OC)c(OC)cc23)c1
**Result** 91.2
